All values here come from patent US11357230B2.

# Tested on: barnyardgrass (Echinochloa crus-galli)
# Procedure summary: Test A postemergence, barnyardgrass
# Format: in vivo
# Assay context: 125 g ai/ha, approximately 10 d
Endpoint: Plant response rating (0 to 100 scale, 0 is no effect, 100 is complete control)

1. CC(=O)NN=C1[C@H](C(=O)Nc2cccc(F)c2F)[C@@H](c2ccc(C(F)(F)F)cc2)CN1C (relative stereo) [Compound 5] ... 80
2. CN1C[C@H](c2ccc(C(F)(F)F)cc2)[C@@H](C(=O)Nc2cccc(F)c2F)C1=NNC(=O)OC(C)(C)C (relative stereo) [Compound 8] ... 80
3. CNN=C1[C@H](C(=O)Nc2cccc(F)c2F)[C@@H](c2ccc(C(F)(F)F)cc2)CN1C (relative stereo) [Compound 3] ... 70
4. CN1C[C@H](c2ccc(C(F)(F)F)cc2)[C@@H](C(=O)Nc2cccc(F)c2F)C1=NN1CCOCC1 (relative stereo) [Compound 7] ... 50
5. CN(C)N=C1[C@H](C(=O)Nc2cccc(F)c2F)[C@@H](c2ccc(C(F)(F)F)cc2)CN1C (relative stereo) [Compound 4] ... 60
6. CN1C[C@H](c2ccc(C(F)(F)F)cc2)[C@@H](C(=O)Nc2cccc(F)c2F)C1=NN [Compound 2] ... 60
7. CN1C[C@H](c2ccc(C(F)(F)F)cc2)[C@@H](C(=O)Nc2cccc(F)c2F)C1=NNC(=O)C(C)(C)C [Compound 1] ... 80

* * *

# Test system: rice (Oryza sativa)
# Procedure summary: Test B flooded paddy test, rice
# Format: in vivo
# Assay context: 250 g ai/ha, Flood (paddy water), 13 to 15 d
# Description: Plant species in the flooded paddy test selected from rice (Oryza sativa), sedge, umbrella (small-flower umbrella sedge, Cyperus difformis), ducksalad (Heteranthera limosa), and barnyardgrass (Echinochloa crus-galli) were grown to the 2-leaf stage for testing. […] Treated plants and controls were maintained in a greenhouse for 13 to 15 d, after which time all species were compared to controls and visually evaluated. […]
List of Plant response rating (scale of 0 to 100, 0 is no effect, 100 is complete control) values.
Endpoint: Plant response rating (scale of 0 to 100, 0 is no effect, 100 is complete control)

1. CNN=C1[C@H](C(=O)Nc2cccc(F)c2F)[C@@H](c2ccc(C(F)(F)F)cc2)CN1C (relative stereo) ... 0
2. CN(C)N=C1[C@H](C(=O)Nc2cccc(F)c2F)[C@@H](c2ccc(C(F)(F)F)cc2)CN1C (relative stereo) ... 0
3. CN1C[C@H](c2ccc(C(F)(F)F)cc2)[C@@H](C(=O)Nc2cccc(F)c2F)C1=NN1CCOCC1 (relative stereo) ... 0

* * *

# System: Foxtail, Giant
# Procedure summary: Test A postemergence, giant foxtail
# Type: in vivo
# Assay context: 125 g ai/ha, approximately 10 d
Endpoint: Plant response rating (0 to 100 scale, 0 is no effect, 100 is complete control)

1. CC(=O)NN=C1[C@H](C(=O)Nc2cccc(F)c2F)[C@@H](c2ccc(C(F)(F)F)cc2)CN1C (relative stereo) [Compound 5] ... 80
2. CN(C)N=C1[C@H](C(=O)Nc2cccc(F)c2F)[C@@H](c2ccc(C(F)(F)F)cc2)CN1C (relative stereo) [Compound 4] ... 80
3. CNN=C1[C@H](C(=O)Nc2cccc(F)c2F)[C@@H](c2ccc(C(F)(F)F)cc2)CN1C (relative stereo) [Compound 3] ... 70
4. CN1C[C@H](c2ccc(C(F)(F)F)cc2)[C@@H](C(=O)Nc2cccc(F)c2F)C1=NNC(=O)OC(C)(C)C (relative stereo) [Compound 8] ... 80
5. CN1C[C@H](c2ccc(C(F)(F)F)cc2)[C@@H](C(=O)Nc2cccc(F)c2F)C1=NN1CCOCC1 (relative stereo) [Compound 7] ... 50

* * *

# Test system: kochia (Kochia scoparia)
# Procedure summary: Test A postemergence, kochia
# Type: in vivo
# Assay context: 125 g ai/ha, approximately 10 d
Endpoint: Plant response rating (0 to 100 scale, 0 is no effect, 100 is complete control)

1. CN1C[C@H](c2ccc(C(F)(F)F)cc2)[C@@H](C(=O)Nc2cccc(F)c2F)C1=NN ... 0
2. CN1C[C@H](c2ccc(C(F)(F)F)cc2)[C@@H](C(=O)Nc2cccc(F)c2F)C1=NNC(=O)OC(C)(C)C (relative stereo) ... 0
3. CN(C)N=C1[C@H](C(=O)Nc2cccc(F)c2F)[C@@H](c2ccc(C(F)(F)F)cc2)CN1C (relative stereo) ... 40
4. CN1C[C@H](c2ccc(C(F)(F)F)cc2)[C@@H](C(=O)Nc2cccc(F)c2F)C1=NNC(=O)C(C)(C)C ... 0
5. CN1C[C@H](c2ccc(C(F)(F)F)cc2)[C@@H](C(=O)Nc2cccc(F)c2F)C1=NN1CCOCC1 (relative stereo) ... 60
6. CNN=C1[C@H](C(=O)Nc2cccc(F)c2F)[C@@H](c2ccc(C(F)(F)F)cc2)CN1C (relative stereo) ... 60
7. CC(=O)NN=C1[C@H](C(=O)Nc2cccc(F)c2F)[C@@H](c2ccc(C(F)(F)F)cc2)CN1C (relative stereo) ... 30

* * *

# Tested on: kochia (Kochia scoparia)
# Procedure summary: Test A preemergence, kochia
# Format: in vivo
# Assay context: 31 g ai/ha, approximately 10 d
Endpoint: Plant response rating (0 to 100 scale, 0 is no effect, 100 is complete control)

1. CN1C[C@H](c2ccc(C(F)(F)F)cc2)[C@@H](C(=O)Nc2cccc(F)c2F)C1=NNC(=O)C(C)(C)C [Compound 1] ... 0
2. CC(=O)NN=C1[C@H](C(=O)Nc2cccc(F)c2F)[C@@H](c2ccc(C(F)(F)F)cc2)CN1C (relative stereo) [Compound 5] ... 10
3. CN(C)N=C1[C@H](C(=O)Nc2cccc(F)c2F)[C@@H](c2ccc(C(F)(F)F)cc2)CN1C (relative stereo) [Compound 4] ... 0

* * *

# Tested on: barnyardgrass (Echinochloa crus-galli)
# Procedure summary: Test A preemergence, barnyardgrass
# Type: in vivo
# Assay context: 125 g ai/ha, approximately 10 d
Endpoint: Plant response rating (0 to 100 scale, 0 is no effect, 100 is complete control)

1. CC(=O)NN=C1[C@H](C(=O)Nc2cccc(F)c2F)[C@@H](c2ccc(C(F)(F)F)cc2)CN1C (relative stereo) ... 90
2. CN1C[C@H](c2ccc(C(F)(F)F)cc2)[C@@H](C(=O)Nc2cccc(F)c2F)C1=NN1CCOCC1 (relative stereo) ... 50
3. CNN=C1[C@H](C(=O)Nc2cccc(F)c2F)[C@@H](c2ccc(C(F)(F)F)cc2)CN1C (relative stereo) ... 90
4. CN1C[C@H](c2ccc(C(F)(F)F)cc2)[C@@H](C(=O)Nc2cccc(F)c2F)C1=NN ... 90
5. CN1C[C@H](c2ccc(C(F)(F)F)cc2)[C@@H](C(=O)Nc2cccc(F)c2F)C1=NNC(=O)C(C)(C)C ... 100
6. CN(C)N=C1[C@H](C(=O)Nc2cccc(F)c2F)[C@@H](c2ccc(C(F)(F)F)cc2)CN1C (relative stereo) ... 90
7. CN1C[C@H](c2ccc(C(F)(F)F)cc2)[C@@H](C(=O)Nc2cccc(F)c2F)C1=NNC(=O)OC(C)(C)C (relative stereo) ... 90

* * *

# Test system: blackgrass (Alopecurus myosuroides)
# Procedure summary: Test A postemergence, blackgrass
# Format: in vivo
# Assay context: 125 g ai/ha, approximately 10 d
Endpoint: Plant response rating (0 to 100 scale, 0 is no effect, 100 is complete control)

1) CC(=O)NN=C1[C@H](C(=O)Nc2cccc(F)c2F)[C@@H](c2ccc(C(F)(F)F)cc2)CN1C (relative stereo) ... 80
2) CNN=C1[C@H](C(=O)Nc2cccc(F)c2F)[C@@H](c2ccc(C(F)(F)F)cc2)CN1C (relative stereo) ... 80
3) CN1C[C@H](c2ccc(C(F)(F)F)cc2)[C@@H](C(=O)Nc2cccc(F)c2F)C1=NNC(=O)C(C)(C)C ... 50
4) CN1C[C@H](c2ccc(C(F)(F)F)cc2)[C@@H](C(=O)Nc2cccc(F)c2F)C1=NNC(=O)OC(C)(C)C (relative stereo) ... 60
5) CN1C[C@H](c2ccc(C(F)(F)F)cc2)[C@@H](C(=O)Nc2cccc(F)c2F)C1=NN ... 30
6) CN(C)N=C1[C@H](C(=O)Nc2cccc(F)c2F)[C@@H](c2ccc(C(F)(F)F)cc2)CN1C (relative stereo) ... 50
7) CN1C[C@H](c2ccc(C(F)(F)F)cc2)[C@@H](C(=O)Nc2cccc(F)c2F)C1=NN1CCOCC1 (relative stereo) ... 30

* * *

List of Plant response rating (0 to 100 scale, 0 is no effect, 100 is complete control) values.
# Tested on: ragweed (common ragweed, Ambrosia elatior)
# Procedure summary: Test A postemergence, ragweed
# Type: in vivo
# Assay context: 125 g ai/ha, approximately 10 d
Endpoint: Plant response rating (0 to 100 scale, 0 is no effect, 100 is complete control)

1) CN1C[C@H](c2ccc(C(F)(F)F)cc2)[C@@H](C(=O)Nc2cccc(F)c2F)C1=NNC(=O)C(C)(C)C ... 0
2) CN(C)N=C1[C@H](C(=O)Nc2cccc(F)c2F)[C@@H](c2ccc(C(F)(F)F)cc2)CN1C (relative stereo) ... 30
3) CN1C[C@H](c2ccc(C(F)(F)F)cc2)[C@@H](C(=O)Nc2cccc(F)c2F)C1=NNC(=O)OC(C)(C)C (relative stereo) ... 0
4) CN1C[C@H](c2ccc(C(F)(F)F)cc2)[C@@H](C(=O)Nc2cccc(F)c2F)C1=NN ... 0
5) CNN=C1[C@H](C(=O)Nc2cccc(F)c2F)[C@@H](c2ccc(C(F)(F)F)cc2)CN1C (relative stereo) ... 50
6) CN1C[C@H](c2ccc(C(F)(F)F)cc2)[C@@H](C(=O)Nc2cccc(F)c2F)C1=NN1CCOCC1 (relative stereo) ... 50
7) CC(=O)NN=C1[C@H](C(=O)Nc2cccc(F)c2F)[C@@H](c2ccc(C(F)(F)F)cc2)CN1C (relative stereo) ... 0
